Origin of measurements: patent US20040019430A1

Test system: Arabidopsis thaliana plants
Test: SOA1 phenotypic analysis of herbicide-treated Arabidopsis plants (MIC, Tmic, leaf traits)
Type: in vivo
Conditions: numeric value standardized to mock treated
measured attribute: Dev. pointedLeaves

{"compound": "CCc1cccc(C)c1N(C(=O)CCl)C(C)COC (stereo not shown) [Metolachlor]", "numeric result": 1}
{"compound": "CC(C)C1(C)N=C(c2ncccc2C(=O)O)NC1=O (stereo not shown) [Imazapyr]", "numeric result": 0}
{"compound": "C[n+]1ccc(-c2cc[n+](C)cc2)cc1 [Paraquat]", "numeric result": 1}
{"compound": "COc1c(Cl)ccc(Cl)c1C(=O)O [Dicamba]", "numeric result": 0}
{"compound": "O=C(O)Cn1c(=O)sc2cccc(Cl)c21 [Benazolin]", "numeric result": 0}
{"compound": "O=C(O)CNCP(=O)(O)O [Glyphosate]", "numeric result": 1}
{"compound": "CSc1nnc(C(C)(C)C)c(=O)n1N [Metribuzin]", "numeric result": 1}

---

Test system: Arabidopsis thaliana plants
Experiment: SOA1 phenotypic analysis of herbicide-treated Arabidopsis plants (MIC, Tmic, leaf traits)
Assay type: in vivo
Details: numeric value standardized to mock treated

{"compound": "C[n+]1ccc(-c2cc[n+](C)cc2)cc1", "Dev. matureLeafNecrosis": 4}
{"compound": "CC(C)N1C(=O)c2ccccc2NS1(=O)=O", "Dev. matureLeafNecrosis": 4}
{"compound": "CP(=O)(O)CCC(N)C(=O)O (stereo not drawn) [Glufosinate]", "Dev. matureLeafNecrosis": 0}
{"compound": "Nc1nc[nH]n1", "Dev. matureLeafNecrosis": 0}
{"compound": "O=C(O)COc1ccc(Cl)cc1Cl", "Dev. matureLeafNecrosis": 0}
{"compound": "CSc1nnc(C(C)(C)C)c(=O)n1N", "Dev. matureLeafNecrosis": 4}
{"compound": "CCc1cccc(C)c1N(C(=O)CCl)C(C)COC (stereo not drawn)", "Dev. matureLeafNecrosis": 3}
{"compound": "CC(C)C1(C)N=C(c2ncccc2C(=O)O)NC1=O (stereo not drawn)", "Dev. matureLeafNecrosis": 0}
{"compound": "c1cc[n+]2c(c1)-c1cccc[n+]1CC2", "Dev. matureLeafNecrosis": 4}
{"compound": "COC(=O)c1cc(Oc2ccc(Cl)cc2Cl)ccc1[N+](=O)[O-]", "Dev. matureLeafNecrosis": 1}
{"compound": "O=C(O)Cn1c(=O)sc2cccc(Cl)c21", "Dev. matureLeafNecrosis": 0}
{"compound": "COc1nc(C)nc(NC(=O)NS(=O)(=O)c2ccccc2Cl)n1", "Dev. matureLeafNecrosis": 0}
